# Test system: OVCAR-4 ovarian
# method.description: NCI tumour cell line growth inhibition, 48 h
readout.kind: TGI

What TGI value was documented for this molecule, NNC(=O)CNc1cccc(Br)c1 ?
> 100 µM

What TGI value was documented for this molecule, O=C1NC(N2CCOCC2)=N/C1=C\c1ccco1 ?
> 100 µM

What TGI value was documented for this molecule, COc1ccc2c(c1OCC(=O)O)C(=O)C(CCC(=O)O)CC2 (configuration not stated) ?
> 100 µM

What TGI value was documented for this molecule, O=C(Cc1ccc(F)c(Cl)c1)Nc1cc(C2(C(F)(F)F)CC2)nn1CC1CCCCC1 ?
> 15 µM

What TGI value was documented for this molecule, S=c1c2cn[nH]c2nc2scc(-c3ccc(Cl)cc3)n12 ?
> 100 µM

What TGI value was documented for this molecule, CCOS(C)(=O)=O ?
> 100 µM

What TGI value was documented for this molecule, C[C@@H]1C[C@@H]([C@@H](CC2CC(=O)NC(=O)C2)OC(=O)CC(=O)c2ccccc2)C(=O)[C@@H](C)C1 ?
> 100 µM

What TGI value was documented for this molecule, CN1CCC(=O)/C(=C/c2ccccc2)C1 ?
32.5 µM

What TGI value was documented for this molecule, Cc1c2n(c(=O)[nH]c1=O)C1OC(CO)C(N=[N+]=[N-])C1O2 (configuration not stated) ?
> 100 µM

What TGI value was documented for this molecule, CCOc1ccc(/C=C2\N=C(c3ccc([N+](=O)[O-])cc3)OC2=O)cc1 ?
> 100 µM

What TGI value was documented for this molecule, O=C(/C=C/c1ccc[nH]1)c1ccc(-n2ccc(C(F)(F)F)n2)cc1 ?
> 100 µM

What TGI value was documented for this molecule, CCOC(=O)c1nc2c(OC)nn(O)cc-2c1[N+](=O)[O-] ?
34.9 µM

What TGI value was documented for this molecule, COC(=O)C(Cc1ccc2c(c1)CCC2)Cc1ccc2c(c1)CCC2 ?
> 100 µM

What TGI value was documented for this molecule, Cc1c(/C=N\NC(=S)NCCNC(=S)N/N=C\c2c(C)n(C)n(-c3ccccc3)c2=O)c(=O)n(-c2ccccc2)n1C ?
> 100 µM

What TGI value was documented for this molecule, CC1(C)[C@@H]2CC[C@@]1(C)CN(CCC[N+](C)(C)C)C2 ?
> 100 µM

What TGI value was documented for this molecule, COc1cc(N(CCC#N)CCC#N)ccc1/C(N=Nc1ccc(Cl)cc1)=N/NC(=O)c1cc(Br)ccc1O ?
37 µg/mL

What TGI value was documented for this molecule, CN1CCOC1c1ccccc1O (configuration not stated) ?
> 100 µM

What TGI value was documented for this molecule, Clc1ccc(-c2nnc3sc4nc5ccccc5c-4nn23)c(Cl)c1 ?
> 100 µM

What TGI value was documented for this molecule, NC(N)=NCCCC(=O)O ?
> 100 µM

What TGI value was documented for this molecule, O=C(/C=C/c1ccccc1)Oc1ccc(C(=O)/C=C/c2ccccc2)cc1 ?
55.5 µM

What TGI value was documented for this molecule, CC(C)SC(=S)Sc1c(Cl)c(Cl)nc(Cl)c1Cl ?
28.4 µM

What TGI value was documented for this molecule, COC(=O)/C(=N\NC(N)=S)C(C(=O)OC)C(=O)C(=O)Nc1ccc(C)cc1 (configuration not stated) ?
> 100 µM

What TGI value was documented for this molecule, Cc1ccccc1C(=O)c1cc(O)ccc1O ?
> 100 µM

What TGI value was documented for this molecule, COc1ccc2/c(=C/c3ccc(N(C)C)cc3)c3cc(-c4ccccc4)[n+](C)n3c2c1 ?
4.19 µM

What TGI value was documented for this molecule, O=C1CCC(c2ccccc2)=NN1c1nsc2ccccc12 ?
> 100 µM

What TGI value was documented for this molecule, COc1ccc(C2OC(c3ccncc3)=NN2C)cc1F (configuration not stated) ?
> 100 µM

What TGI value was documented for this molecule, Cc1cc(N[C@@H]2CCC[C@H](Nc3ccnc4cc(Cl)ccc34)C2)nc(N2CCCCCC2)n1 ?
5.04 µM

What TGI value was documented for this molecule, N#CC(C(=O)/C(=N\NC(N)=O)C(C#N)c1ccc(Cl)cc1)c1ccc(Cl)cc1 (configuration not stated) ?
> 100 µM

What TGI value was documented for this molecule, CC1(C)OC2C(CO[Si](C)(C)C(C)(C)C)OC(n3c(I)c(C#C[Si](C)(C)C)c(=O)[nH]c3=O)C2O1 (configuration not stated) ?
31.8 µM

What TGI value was documented for this molecule, CCOC(=O)C1S/C(=N\C(=N)N[N+](=O)[O-])N=C1C (configuration not stated) ?
> 100 µM

What TGI value was documented for this molecule, Cc1c(O)nc(-n2[nH]c3c(c2=O)CCCC3)[nH]c1=O ?
> 100 µM

What TGI value was documented for this molecule, N#Cc1nn(-c2cc(=O)[nH]c3ccc(Cl)cc23)c(N)c1C#N ?
> 100 µM

----------
# Tested on: EKVX NSCLC
# method.description: NCI tumour cell line growth inhibition, 48 h; in the data active = GI50 below about 0.43 µM; inactive = the rest
Lab note: assign the record to one of active, inactive

Which outcome was assigned to O=c1c(F)cn(Cc2ccc(C34CC5CC(CC(C5)C3)C4)c(O)c2)c(=O)n1Cc1ccc(C23CC4CC(CC(C4)C2)C3)c(O)c1 in this test?
inactive

Which outcome was assigned to O=C(Nc1ccc(Br)cc1F)c1cc(Cl)ccc1O in this test?
inactive

Which outcome was assigned to O=C(Cc1ccc(F)c(Cl)c1)Nc1cc(C2(C(F)(F)F)CC2)nn1CC1CCCCC1 in this test?
inactive

Which outcome was assigned to CC(NCCC(c1ccccc1)c1ccccc1)c1ccccc1 (configuration not stated) in this test?
inactive

Which outcome was assigned to O=C(NC[C@H](O)CN1CCc2ccccc2C1)c1cc(NC2COC2)ncn1 in this test?
inactive

Which outcome was assigned to Cc1nc(Nc2cccnc2)sc1C(=O)/C=C/c1ccc(F)cc1 in this test?
inactive

Which outcome was assigned to CCOC(=O)N[C@H]1CCc2cc(OC)c(OC)c(OC)c2-c2ccc(SC)c(=O)cc21 in this test?
active

Which outcome was assigned to NC(N)=N/N=C/c1c(Cl)cccc1Cl in this test?
inactive

Which outcome was assigned to COc1cc(N(CCC#N)CCC#N)ccc1/C(N=Nc1ccc(Cl)cc1)=N/NC(=O)c1cc(Br)ccc1O in this test?
inactive

Which outcome was assigned to S=c1[nH]c(=S)c2cc3ccccc3nc2[nH]1 in this test?
inactive

Which outcome was assigned to O=C(Nc1cccc(C(F)(F)F)c1)c1ccc(NC2=C(Cl)C(=O)N(Cc3ccc(Cl)cc3Cl)C2=O)cc1 in this test?
inactive

Which outcome was assigned to CNCCOC(=O)/C=C1\CC[C@H]2[C@@H]([C@@H](O)C(=O)[C@@H]3[C@]2(C)CC[C@H](O)[C@]3(C)C(=O)OC)[C@H]1C in this test?
active

----------
# Tested on: SW-620 colon
# method.description: NCI tumour cell line growth inhibition, 48 h
Would you mind telling me the reported TGI of each entry?

What TGI value was documented for this compound, CNCCOC(=O)/C=C1\CC[C@H]2[C@@H]([C@@H](O)C(=O)[C@@H]3[C@]2(C)CC[C@H](O)[C@]3(C)C(=O)OC)[C@H]1C ?
1.14 µM

What TGI value was documented for this compound, COc1ccc2c(c1OCC(=O)O)C(=O)C(CCC(=O)O)CC2 (stereo not given) ?
> 100 µM

What TGI value was documented for this compound, Cc1c(/C=N\NC(=S)NCCNC(=S)N/N=C\c2c(C)n(C)n(-c3ccccc3)c2=O)c(=O)n(-c2ccccc2)n1C ?
> 100 µM

What TGI value was documented for this compound, CC(NC(=O)Cc1ccccc1)NC(=O)C(C)C(=O)Nc1ccccc1 (stereo not given) ?
> 100 µM

What TGI value was documented for this compound, O=C(O)[C@H]1CCCN1CP(=O)(O)CN1CCC[C@@H]1C(=O)O ?
> 100 µM

What TGI value was documented for this compound, Cc1nc(C)c(C(=O)NNC(=O)C[N+](C)(C)C)cc1C(=O)NNC(=O)C[N+](C)(C)C ?
> 100 µM

What TGI value was documented for this compound, O=C1NC2c3c(I)sc(I)c3C(O)C2O1 (stereo not given) ?
> 100 µM

What TGI value was documented for this compound, O=C(Cc1ccc(F)c(Cl)c1)Nc1cc(C2(C(F)(F)F)CC2)nn1CC1CCCCC1 ?
14.4 µM

What TGI value was documented for this compound, COc1cc(N=Nc2ccc(O)c3ncccc23)c2ncccc2c1 ?
> 100 µM

What TGI value was documented for this compound, O=c1oc2ccc(-c3ccc(F)cc3F)cc2c(=O)n1-c1cccc(C(F)(F)F)c1 ?
12.8 µM

----------
Would you mind telling me the reported GI50 of each entry?
# Tested on: SK-MEL-2 melanoma
# method.description: NCI tumour cell line growth inhibition, 48 h

What GI50 value was documented for this molecule, Cc1nc(Nc2cccnc2)sc1C(=O)/C=C/c1ccc(F)cc1 ?
2860 nM

What GI50 value was documented for this molecule, O=c1oc2ccc(-c3ccc(F)cc3F)cc2c(=O)n1-c1cccc(C(F)(F)F)c1 ?
550 nM

What GI50 value was documented for this molecule, COc1cc(C(=O)N2CCN(C(=O)c3cc(OC)c(OC)c(OC)c3)C2=S)cc(OC)c1OC ?
16300 nM

What GI50 value was documented for this molecule, C[n+]1c(/C=C/c2c(O)ccc3ccccc23)ccc2ccccc21 ?
5910 nM

What GI50 value was documented for this molecule, CN(C)CC[C@H](CSc1ccccc1)Nc1ccc(S(=O)(=O)NC(=O)c2ccc(N3CCN(Cc4ccccc4-c4ccc(Cl)cc4)CC3)cc2)cc1[N+](=O)[O-] ?
1880 nM

What GI50 value was documented for this molecule, NC(=O)c1c(NC(=O)c2ccccc2)sc2c1CCC(=O)C2 ?
2400 nM

What GI50 value was documented for this molecule, N=c1c2c(-c3ccccc3)c(-c3ccccc3)n(Cc3ccccc3)c2ncn1C1CCC(O)CC1 (centres undefined) ?
1080 nM

What GI50 value was documented for this molecule, COc1ccc2nc3ccccc3c(NCc3ccc(F)cc3)c2c1 ?
3190 nM

What GI50 value was documented for this molecule, Nc1ncn([C@@H]2O[C@H](CO)[C@@H](O)[C@H]2O)c(=O)n1 ?
612 nM
